Source of measurements: patent US20240343803A1

- experimental system: T1, Fusion protein of extracellular domain of human TIGIT and His-tag (human TIGIT ECD-his) (human)
- T1 chain: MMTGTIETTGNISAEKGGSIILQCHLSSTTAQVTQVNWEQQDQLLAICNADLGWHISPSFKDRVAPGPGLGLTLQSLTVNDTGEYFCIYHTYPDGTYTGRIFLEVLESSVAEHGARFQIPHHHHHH
- method description: BIAcore
quantity measured: koff (s⁻¹)
Lab book: enter the figure in s⁻¹, no units written.

Ask: Recorded koff of TIGIT-070-H1L3 (antibody, V domains shown, Humanized anti-TIGIT antibody) VH: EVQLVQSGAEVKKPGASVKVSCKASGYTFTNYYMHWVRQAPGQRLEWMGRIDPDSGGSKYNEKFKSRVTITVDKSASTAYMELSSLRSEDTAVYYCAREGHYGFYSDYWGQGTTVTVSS VL: DIVMTQSPDSLAVSLGERATINCRVSENIYSYLAWYQQKPGQSPKLLVYNAKTLAEGVPDRFSGSGSGTDFTLTISSLQAEDVAVYYCQHHYGNPLTFGPGTKVDIK , please.
Result: 0.000129

Ask: Quick one: koff of TIGIT-070-H3L1 (antibody, V domains shown, Humanized anti-TIGIT antibody) VH: EVQLVQSGAEVKKPGASVKVSCKASGYTFTNYYMHWVRQAPGQGLEWMGRIDPDSGGSKYNEKFKSRVTITVDKLSSTAYMELSSLRSEDTAVYYCAREGHYGFYSDYWGQGTTVTVSS VL: DIQMTQSPSSLSASVGDRVTITCRVSENIYSYLAWYQQKPGKSPKLLIYNAKTLAEGVPSRFSGSGSGTDFTLTISSLQPEDFATYYCQHHYGNPLTFGPGTKVDIK ?
Result: 0.000152

API: the following record is the query input.
Ask: # query: koff of entry TIGIT-005-H2L1 (antibody, V domains shown, Humanized anti-TIGIT antibody) VH: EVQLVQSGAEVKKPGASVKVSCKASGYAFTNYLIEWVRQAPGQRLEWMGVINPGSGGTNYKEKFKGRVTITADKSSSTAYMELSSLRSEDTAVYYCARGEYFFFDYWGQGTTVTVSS VL: DIVMTQSPDSLAVSLGERATINCKASQHVSNGVAWYQHKPGQSPKLLIYSASYRYTGVPDRFSGSGSGTDFTLTISSLQAEDVAVYYCQQHYNTPHTFGGGTKVEIK
Result: 0.000161
